Listing of recorded MIC by entry.
# Tested on: Klebsiella pneumoniae
# PROCEDURE TEXT: Antibacterial activity against Klebsiella pneumoniae ATCC BAA-2146 expressing NDM-1 after 18 hrs by 2 fold serial dilution method
# Assay type: functional
# TEST CONTEXT: ATCC BAA-2146, 18 h
Bridge positions count the residues as written; N and C are the ends. Square brackets hold non-standard residues; d marks the D form. Peptide text beside a SMILES is read from it. * marks the point of attachment. Benzoyl(4-OPh) = O=C(c1ccc(Oc2ccccc2)cc1)*; Octanoyl = CCCCCCCC(=O)*; Dab = NCC[C@H](N)C(=O)O
Expressed in mg/L, but write only the number.

Worked examples follow.
[
  {
    "MOLECULE": "CC(C)C[C@@H]1NC(=O)[C@@H](Cc2ccccc2)NC(=O)[C@H](CCN)NC(=O)[C@@H](NC(=O)[C@H](CCN)NC(=O)[C@@H](NC(=O)[C@H](CCN)NC(=O)c2ccc(Oc3ccccc3)cc2)[C@@H](C)O)CCNC(=O)[C@H]([C@@H](C)O)NC(=O)[C@H](CCN)NC(=O)[C@H](CCN)NC1=O ({Benzoyl(4-OPh)}-[Dab]T[Dab][Dab][Dab][dF]L[Dab][Dab]T; lactam 4-C)",
    "ASSAYED SYSTEM": "Klebsiella pneumoniae",
    "MIC / mg/L": 0.5
  },
  {
    "MOLECULE": "CCCCCCCC(=O)N[C@@H](CCN)C(=O)N[C@H](C(=O)N[C@H](CO)C(=O)N[C@H]1CCNC(=O)[C@H]([C@@H](C)O)NC(=O)[C@H](CCN)NC(=O)[C@H](CCN)NC(=O)[C@H](CC(C)C)NC(=O)[C@@H](Cc2ccccc2)NC(=O)[C@H](CCN)NC1=O)[C@@H](C)O (Octanoyl-[Dab]T[dS][Dab][Dab][dF]L[Dab][Dab]T; lactam 4-C)",
    "ASSAYED SYSTEM": "Klebsiella pneumoniae",
    "MIC / mg/L": 16
  }
]

q: I am curious: what MIC value has been reported for CCCCCCCC(=O)N[C@@H](CCN)C(=O)N[C@H](C(=O)N[C@@H](CCN)C(=O)N[C@H]1CCNC(=O)[C@H]([C@@H](C)O)NC(=O)[C@H](CCN)NC(=O)[C@H](CCN)NC(=O)[C@H](CC(C)C)NC(=O)[C@@H](Cc2ccccc2)NC(=O)[C@H](CCNC(=O)[C@@H](N)CCC(=O)O)NC1=O)[C@@H](C)O (Octanoyl-[Dab]T[Dab][Dab][Dab](Glu)[dF]L[Dab][Dab]T; lactam 4-C) ?
a: 32

###

# PROCEDURE TEXT: Cytotoxicity against human HepG2 cells after 24 hrs by resazurin assay
# Assay type: cell-based
# TEST CONTEXT: HepG2 cells
Bridge positions count the residues as written; N and C are the ends. Square brackets hold non-standard residues; d marks the D form. Peptide text beside a SMILES is read from it. * marks the point of attachment. Benzoyl(4-Ph) = O=C(c1ccc(-c2ccccc2)cc1)*; Bip = N[C@@H](Cc1ccc(-c2ccccc2)cc1)C(=O)O; Octanoyl = CCCCCCCC(=O)*; Dab = NCC[C@H](N)C(=O)O
Listing of recorded CC50 at 24 h by entry.

Worked examples follow.
[
  {
    "COMPOUND": "CC(C)C[C@@H]1NC(=O)[C@@H](Cc2ccccc2)NC(=O)[C@H](CCN)NC(=O)[C@@H](NC(=O)[C@H](CCN)NC(=O)[C@@H](NC(=O)[C@H](CCN)NC(=O)c2ccc(-c3ccccc3)cc2)[C@@H](C)O)CCNC(=O)[C@H]([C@@H](C)O)NC(=O)[C@H](CCN)NC(=O)[C@H](CCN)NC1=O ({Benzoyl(4-Ph)}-[Dab]T[Dab][Dab][Dab][dF]L[Dab][Dab]T; lactam 4-C)",
    "CC50 at 24 h": "298 µM"
  },
  {
    "COMPOUND": "CCCCCCCC(=O)N[C@@H](CCN)C(=O)N[C@H](C(=O)N[C@@H](CCN)C(=O)N[C@H]1CCNC(=O)[C@H]([C@@H](C)O)NC(=O)[C@H](CCNC(=O)[C@@H](N)CCC(=O)O)NC(=O)[C@H](CCN)NC(=O)[C@H](CC(C)C)NC(=O)[C@@H](Cc2ccccc2)NC(=O)[C@H](CCN)NC1=O)[C@@H](C)O (Octanoyl-[Dab]T[Dab][Dab][Dab][dF]L[Dab][Dab](Glu)T; lactam 4-C)",
    "CC50 at 24 h": "> 300 µM"
  }
]

Switching to the query record.
q: I am curious: what CC50 at 24 h value has been reported for CCCCCCCC(=O)N[C@@H](CCN)C(=O)N[C@H](C(=O)N[C@@H](CCN)C(=O)N[C@H]1CCNC(=O)[C@H]([C@@H](C)O)NC(=O)[C@H](CCN)NC(=O)[C@H](CCN)NC(=O)[C@H](Cc2ccc(-c3ccccc3)cc2)NC(=O)[C@@H](Cc2ccccc2)NC(=O)[C@H](CCN)NC1=O)[C@@H](C)O (Octanoyl-[Dab]T[Dab][Dab][Dab][dF][Bip][Dab][Dab]T; lactam 4-C) ?
a: 117 µM

###

Listing of recorded MIC by entry.
# Test system: Acinetobacter baumannii
# PROCEDURE TEXT: Antibacterial activity against Acinetobacter baumannii ATCC 19606 after 18 hrs by 2 fold serial dilution method
# Type: functional
# TEST CONTEXT: ATCC 19606, 18 h
Bridge positions count the residues as written; N and C are the ends. Square brackets hold non-standard residues; d marks the D form. Peptide text beside a SMILES is read from it. * marks the point of attachment. Phe(4-NH2) = Nc1ccc(C[C@H](N)C(=O)O)cc1; dDab = NCC[C@@H](N)C(=O)O; Octanoyl = CCCCCCCC(=O)*; Dab = NCC[C@H](N)C(=O)O

Worked examples follow.
[
  {
    "COMPOUND": "CCCCCCCC(=O)N[C@H](CCN)C(=O)N[C@H](C(=O)NCC(=O)N[C@H]1CCNC(=O)[C@H]([C@@H](C)O)NC(=O)[C@H](CCN)NC(=O)[C@H](CCN)NC(=O)[C@H](CC(C)C)NC(=O)[C@@H](Cc2ccccc2)NC(=O)[C@H](CCN)NC1=O)[C@@H](C)O (Octanoyl-[dDab]TG[Dab][Dab][dF]L[Dab][Dab]T; lactam 4-C)",
    "MIC": "> 64 mg/L"
  },
  {
    "COMPOUND": "CCCCCCCC(=O)N[C@H](C(=O)N[C@@H](CCN)C(=O)N[C@H]1CCNC(=O)[C@H]([C@@H](C)O)NC(=O)[C@H](CCN)NC(=O)[C@H](CCN)NC(=O)[C@H](CC(C)C)NC(=O)[C@@H](Cc2ccccc2)NC(=O)[C@H](CCN)NC1=O)[C@@H](C)O [Octanoyl Polymixin B nonapeptide] (Octanoyl-T[Dab][Dab][Dab][dF]L[Dab][Dab]T; lactam 3-C)",
    "MIC": "2 mg/L"
  }
]

q: I am curious: what MIC value has been reported for CCCCCCCC(=O)N[C@@H](CCN)C(=O)N[C@H](C(=O)N[C@@H](CCN)C(=O)N[C@H]1CCNC(=O)[C@H]([C@@H](C)O)NC(=O)[C@H](Cc2ccc(N)cc2)NC(=O)[C@H](CCN)NC(=O)[C@H](CC(C)C)NC(=O)[C@@H](Cc2ccccc2)NC(=O)[C@H](CCN)NC1=O)[C@@H](C)O (Octanoyl-[Dab]T[Dab][Dab][Dab][dF]L[Dab][Phe(4-NH2)]T; lactam 4-C) ?
a: > 32 mg/L

###

# Tested on: Klebsiella pneumoniae
# PROCEDURE TEXT: Antibacterial activity against clinical isolate carbapenem and polymyxin resistant Klebsiella pneumoniae Koprana 100650661:1 after 18 hrs by 2 fold serial dilution method
# Type: functional
# TEST CONTEXT: Koprana 100650661:1, 18 h
Bridge positions count the residues as written; N and C are the ends. Square brackets hold non-standard residues; d marks the D form. Peptide text beside a SMILES is read from it. * marks the point of attachment. ξ: configuration not given here. dBip = N[C@H](Cc1ccc(-c2ccccc2)cc1)C(=O)O; ξGly(octyl) = CCCCCCCCC(N)C(=O)O; Octanoyl = CCCCCCCC(=O)*; Dab = NCC[C@H](N)C(=O)O
EXPERIMENTAL READOUT: MIC (µg/mL)
Expressed in µg/mL, but write only the number.

[
  {
    "MOLECULE": "CCCCCCCC(=O)N[C@@H](CCN)C(=O)N[C@H](C(=O)N[C@@H](CCN)C(=O)N[C@H]1CCNC(=O)[C@H]([C@@H](C)O)NC(=O)[C@H](CCN)NC(=O)[C@H](CCN)NC(=O)[C@H](CC(C)C)NC(=O)[C@@H](Cc2ccc(-c3ccccc3)cc2)NC(=O)[C@H](CCN)NC1=O)[C@@H](C)O (Octanoyl-[Dab]T[Dab][Dab][Dab][dBip]L[Dab][Dab]T; lactam 4-C)",
    "ASSAYED SYSTEM": "Klebsiella pneumoniae",
    "MEASURE UNIT": "µg/mL",
    "VALUE MEASURED": 32
  }
]

Switching to the query record.
q: Hi! What's the reported MIC for CCCCCCCCC1NC(=O)[C@@H](Cc2ccccc2)NC(=O)[C@H](CCN)NC(=O)[C@@H](NC(=O)[C@H](CCN)NC(=O)[C@@H](NC(=O)[C@H](CCN)NC(=O)CCCCCCC)[C@@H](C)O)CCNC(=O)[C@H]([C@@H](C)O)NC(=O)[C@H](CCN)NC(=O)[C@H](CCN)NC1=O (stereo not given in full) (Octanoyl-[Dab]T[Dab][Dab][Dab][dF][ξGly(octyl)][Dab][Dab]T; lactam 4-C) on Klebsiella pneumoniae?
a: 32
